# System: A549
# test_protocol: Cytotoxicity against human A549 cells at 100 uM after 72 hrs by CellTiter-Glo luminescence assay
# Format: functional
# protocol_conditions: A549, 72 h
experimental_endpoint: inhibition at 100 µM (%)
Give bare numbers, in %.

The cases that follow already have their inhibition at 100 µM on record.
Asked: Sample CCC[C@@H]1CNC(=O)C(=O)N1C[C@@H]1CCCN1C[C@H](Cc1ccc(O)cc1)N1C[C@@H](Cc2ccc(O)cc2)N(CC2CCCC2)C(=O)C1=O — what was its inhibition at 100 µM?
Given back: 5

Asked: Sample CCC[C@@H]1CNC(=O)C(=O)N1C[C@@H]1CCCN1C[C@@H](Cc1ccc(O)cc1)N1C[C@H](Cc2ccc(O)cc2)N(CC(CC)c2ccccc2)C(=O)C1=O (some centres not stated) — what was its inhibition at 100 µM?
Given back: 4

Asked: Sample CCC[C@@H]1CNC(=O)C(=O)N1C[C@@H]1CCCN1C[C@@H](Cc1ccc(O)cc1)N1C[C@@H](Cc2ccc(O)cc2)N(CC2CCCC2)C(=O)C1=O — what was its inhibition at 100 µM?
Given back: 14

Asked: Sample CCC[C@@H]1CNC(=O)C(=O)N1C[C@@H]1CCCN1C[C@H](Cc1ccc(O)cc1)N1C[C@H](Cc2ccc(O)cc2)N(CC(CC)c2ccccc2)C(=O)C1=O (some centres not stated) — what was its inhibition at 100 µM?
Given back: 0

Asked: Sample CCC[C@@H]1CNC(=O)C(=O)N1C[C@@H]1CCCN1C[C@@H](Cc1ccc(O)cc1)N1C[C@@H](Cc2ccc(O)cc2)N(CC(CC)c2ccccc2)C(=O)C1=O (some centres not stated) — what was its inhibition at 100 µM?
Given back: 8

Asked: Sample CCC[C@@H]1CNC(=O)C(=O)N1C[C@@H]1CCCN1C[C@@H](Cc1ccc(O)cc1)N1C[C@H](Cc2ccc(O)cc2)N(CC2CCCC2)C(=O)C1=O — what was its inhibition at 100 µM?
Given back: 16

Then this compound:
Asked: Sample CCC[C@@H]1CNC(=O)C(=O)N1C[C@@H]1CCCN1C[C@H](Cc1ccc(O)cc1)N1C[C@H](Cc2ccc(O)cc2)N(CC2CCCC2)C(=O)C1=O — what was its inhibition at 100 µM?
Given back: 0

* * *

# System: M14
# test_protocol: Cytotoxicity against human M14 cells at 100 uM after 72 hrs by CellTiter-Glo luminescence assay
# Assay type: functional
# protocol_conditions: M14, 72 h
experimental_endpoint: inhibition at 100 µM (%)
Give bare numbers, in %.

Asked: Sample CCC[C@@H]1CNC(=O)C(=O)N1C[C@@H]1CCCN1C[C@H](Cc1ccc(O)cc1)N1C[C@H](Cc2ccc(O)cc2)N(CC2CCCC2)C(=O)C1=O — what was its inhibition at 100 µM?
Given back: 15

Asked: Sample CCC[C@@H]1CNC(=O)C(=O)N1C[C@@H]1CCCN1C[C@@H](Cc1ccc(O)cc1)N1C[C@H](Cc2ccc(O)cc2)N(CC2CCCC2)C(=O)C1=O — what was its inhibition at 100 µM?
Given back: 23

Asked: Sample CCC[C@@H]1CNC(=O)C(=O)N1C[C@@H]1CCCN1C[C@H](Cc1ccc(O)cc1)N1C[C@H](Cc2ccc(O)cc2)N(CC(CC)c2ccccc2)C(=O)C1=O (some centres not stated) — what was its inhibition at 100 µM?
Given back: 10

Asked: Sample CCC[C@@H]1CNC(=O)C(=O)N1C[C@@H]1CCCN1C[C@@H](Cc1ccc(O)cc1)N1C[C@@H](Cc2ccc(O)cc2)N(CC(CC)c2ccccc2)C(=O)C1=O (some centres not stated) — what was its inhibition at 100 µM?
Given back: 14

Asked: Sample CCC[C@@H]1CNC(=O)C(=O)N1C[C@@H]1CCCN1C[C@H](Cc1ccc(O)cc1)N1C[C@@H](Cc2ccc(O)cc2)N(CC2CCCC2)C(=O)C1=O — what was its inhibition at 100 µM?
Given back: 3

Your task in this section: give inhibition at 100 µM for each listed record.
1. CCC[C@@H]1CNC(=O)C(=O)N1C[C@@H]1CCCN1C[C@@H](Cc1ccc(O)cc1)N1C[C@H](Cc2ccc(O)cc2)N(CC(CC)c2ccccc2)C(=O)C1=O (some centres not stated)
2. CCC[C@@H]1CNC(=O)C(=O)N1C[C@@H]1CCCN1C[C@@H](Cc1ccc(O)cc1)N1C[C@@H](Cc2ccc(O)cc2)N(CC2CCCC2)C(=O)C1=O

Given back:
[7, 25]

* * *

# test_protocol: Cytotoxicity against human M262 cells expressing B-raf V600E mutant
# Type: functional, cell-based
experimental_endpoint: IC50 (nM)
Give bare numbers, in nM.

Asked: Sample CCCS(=O)(=O)Nc1ccc(F)c(C(=O)c2c[nH]c3ncc(-c4ccc(Cl)cc4)cc23)c1F — what was its IC50?
Given back: 100

* * *

# test_protocol: Cytotoxicity against CHOK1 cells at 100 uM after 72 hrs by CellTiter-Glo luminescence assay
# Type: cell-based, Cricetulus griseus
# protocol_conditions: chinese hamster, CHO-K1 cells; read-out: INH
Would you kindly list cytotoxicity at 72 h, 100 µM for each of these compounds?
Give bare numbers, in %.

The cases that follow already have their cytotoxicity at 72 h, 100 µM on record.
Asked: Sample CCC[C@@H]1CNC(=O)C(=O)N1C[C@@H]1CCCN1C[C@@H](Cc1ccc(O)cc1)N1C[C@H](Cc2ccc(O)cc2)N(CC2CCCC2)C(=O)C1=O — what was its cytotoxicity at 72 h, 100 µM?
Given back: 19

Asked: Sample CCC[C@@H]1CNC(=O)C(=O)N1C[C@@H]1CCCN1C[C@@H](Cc1ccc(O)cc1)N1C[C@H](Cc2ccc(O)cc2)N(CC(CC)c2ccccc2)C(=O)C1=O (stereo partly drawn) — what was its cytotoxicity at 72 h, 100 µM?
Given back: 48

Asked: Sample CCC[C@@H]1CNC(=O)C(=O)N1C[C@@H]1CCCN1C[C@H](Cc1ccc(O)cc1)N1C[C@H](Cc2ccc(O)cc2)N(CC(CC)c2ccccc2)C(=O)C1=O (stereo partly drawn) — what was its cytotoxicity at 72 h, 100 µM?
Given back: 27

Asked: Sample CCC[C@@H]1CNC(=O)C(=O)N1C[C@@H]1CCCN1C[C@H](Cc1ccc(O)cc1)N1C[C@@H](Cc2ccc(O)cc2)N(CC(CC)c2ccccc2)C(=O)C1=O (stereo partly drawn) — what was its cytotoxicity at 72 h, 100 µM?
Given back: 0

Asked: Sample CCC[C@@H]1CNC(=O)C(=O)N1C[C@@H]1CCCN1C[C@@H](Cc1ccc(O)cc1)N1C[C@@H](Cc2ccc(O)cc2)N(CC2CCCC2)C(=O)C1=O — what was its cytotoxicity at 72 h, 100 µM?
Given back: 11

Your task in this section: give cytotoxicity at 72 h, 100 µM for each listed record.
1. CCC[C@@H]1CNC(=O)C(=O)N1C[C@@H]1CCCN1C[C@H](Cc1ccc(O)cc1)N1C[C@@H](Cc2ccc(O)cc2)N(CC2CCCC2)C(=O)C1=O
2. CCC[C@@H]1CNC(=O)C(=O)N1C[C@@H]1CCCN1C[C@@H](Cc1ccc(O)cc1)N1C[C@@H](Cc2ccc(O)cc2)N(CC(CC)c2ccccc2)C(=O)C1=O (stereo partly drawn)
3. CCC[C@@H]1CNC(=O)C(=O)N1C[C@@H]1CCCN1C[C@H](Cc1ccc(O)cc1)N1C[C@H](Cc2ccc(O)cc2)N(CC2CCCC2)C(=O)C1=O

Given back:
1. 7
2. 59
3. 7

* * *

# System: SK-MEL-28
# test_protocol: Cytotoxicity against human SK-MEL-28 cells expressing B-raf V600E mutant
# Type: functional, cell-based
experimental_endpoint: pIC50
Give bare numbers, as −log10 of the molar value.

Asked: Sample CCCS(=O)(=O)Nc1ccc(F)c(C(=O)c2c[nH]c3ncc(-c4ccc(Cl)cc4)cc23)c1F [VEMURAFENIB] — what was its pIC50?
Given back: 7.00

Origin of the recorded values: ChEMBL document CHEMBL3232843
